# ECmax (-fold induction over basal) per entry for GPR39 (Homo sapiens, UniProt O43194)
Square brackets hold non-standard residues; d marks the D form. Peptide text beside a SMILES is read from it. * marks the point of attachment. His(Trt) = N[C@@H](Cc1cn(C(c2ccccc2)(c2ccccc2)c2ccccc2)cn1)C(=O)O; His(τ-CHPh2) = N[C@@H](Cc1cn(C(c2ccccc2)c2ccccc2)cn1)C(=O)O; sY = N[C@@H](Cc1ccc(OS(=O)(=O)O)cc1)C(=O)O; dPhe(4-Me) = Cc1ccc(C[C@@H](N)C(=O)O)cc1; d2Nal = N[C@H](Cc1ccc2ccccc2c1)C(=O)O; Palmitoyl = CCCCCCCCCCCCCCCC(=O)*; Octanoyl = CCCCCCCC(=O)*

{"compound": "CCCCCCCC(=O)NCCCC[C@H](NC(=O)[C@@H](N)Cc1cn(C(c2ccccc2)(c2ccccc2)c2ccccc2)cn1)C(=O)N[C@@H](Cc1ccccc1)C(=O)N[C@@H](Cc1ccc(O)cc1)C(=O)N[C@@H](Cc1c[nH]c2ccccc12)C(=O)O [HKFY-44] (H-[His(Trt)]K(Octanoyl)FYW-OH)", "measured.target": "GPR39 (Homo sapiens, UniProt O43194)", "ECmax (-fold induction over basal)": "20 ± 0.47 -fold induction over basal"}
{"compound": "CCCCCCCC(=O)NCCCC[C@H](NC(=O)[C@@H](N)Cc1cn(C(c2ccccc2)c2ccccc2)cn1)C(=O)N[C@H](Cc1ccc(C)cc1)C(=O)N[C@@H](Cc1ccc(OS(=O)(=O)O)cc1)C(=O)O [HKFY-35] (H-[His(τ-CHPh2)]K(Octanoyl)[dPhe(4-Me)][sY]-OH)", "measured.target": "GPR39 (Homo sapiens, UniProt O43194)", "ECmax (-fold induction over basal)": "18.9 ± 0.41 -fold induction over basal"}
{"compound": "CCCCCCCC(=O)NCCCC[C@H](NC(=O)[C@@H](N)Cc1cn(C(c2ccccc2)(c2ccccc2)c2ccccc2)cn1)C(=O)N[C@H](Cc1ccc2ccccc2c1)C(=O)N[C@@H](Cc1ccc(O)cc1)C(=O)O [HKFY-74] (H-[His(Trt)]K(Octanoyl)[d2Nal]Y-OH)", "measured.target": "GPR39 (Homo sapiens, UniProt O43194)", "ECmax (-fold induction over basal)": "18.8 ± 3.2 -fold induction over basal"}

Proceeding to the next compound to report its ECmax (-fold induction over basal).
Enquiry: May I ask what ECmax (-fold induction over basal) has been recorded for CCCCCCCCCCCCCCCC(=O)NCCCC[C@H](NC(=O)[C@@H](N)Cc1cn(C(c2ccccc2)(c2ccccc2)c2ccccc2)cn1)C(=O)N[C@@H](Cc1ccccc1)C(=O)N[C@@H](Cc1ccc(O)cc1)C(=O)O [HKFY-27] (H-[His(Trt)]K(Palmitoyl)FY-OH) ?
Return: 20.4 ± 0.57 -fold induction over basal

Where these numbers come from: patent US20230212222A1
